Origin of values: paper PMC3005596

Target: T1, TRBP (human, UniProt Q15633 1-366)
T1 sequence: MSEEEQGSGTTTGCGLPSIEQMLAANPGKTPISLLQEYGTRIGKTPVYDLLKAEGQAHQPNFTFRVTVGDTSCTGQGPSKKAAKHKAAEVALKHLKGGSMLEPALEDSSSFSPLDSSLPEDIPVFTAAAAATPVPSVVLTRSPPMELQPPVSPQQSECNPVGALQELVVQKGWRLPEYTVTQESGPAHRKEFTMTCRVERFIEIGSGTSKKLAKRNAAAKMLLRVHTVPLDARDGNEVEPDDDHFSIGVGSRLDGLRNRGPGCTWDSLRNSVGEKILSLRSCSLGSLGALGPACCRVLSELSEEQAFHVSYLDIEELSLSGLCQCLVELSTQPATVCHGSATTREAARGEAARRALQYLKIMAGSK
Test: filter binding
measurement-kind: Kd

Given item 35-bp duplex (pre-siRNA) (dsRNA) RNA 1: UGAGGUAGUAGGUUGUAUAGUUUGAAAGUUCACGAUU RNA 2: UCGUGAACUUUCAAACUAUACAACCUACUACCUCAAA , the value recorded as its Kd is < 0.09 nM
